The reported measurements were obtained from BigSolDB 2.1.

- details: in methyl acetate, 293.15 K
property-name: solubility (mole fraction)
// print number alone

Give the reported solubility (mole fraction) for this molecule. `Brc1cnc2[nH]ccc2c1`
0.0312

* * *

- details: in ethanol, 293.15 K
property-name: solubility (mole fraction)

Answer with the recorded solubility (mole fraction) of `Brc1cnc2[nH]ccc2c1` only.
0.0125

* * *

- details: in n-propanol, 288.15 K
property-name: solubility (mole fraction)
// print number alone

Quickly give me recorded solubility (mole fraction) for `Brc1cnc2[nH]ccc2c1`
0.0123

* * *

- details: in methyl acetate, 278.15 K
property-name: solubility (mole fraction)
Please give only the number in your answer, with no unit.

Give reported solubility (mole fraction) value for `Brc1cnc2[nH]ccc2c1`
0.0222

* * *

- details: in acetonitrile, 278.15 K
property-name: solubility (mole fraction)
Form: value (number only, do not type unit).

Using the record for `Brc1cnc2[nH]ccc2c1` , state its measured solubility (mole fraction).
0.00224

* * *

- details: in acetonitrile, 308.15 K
property-name: solubility (mole fraction)
Form field (numeric): enter value without unit.

For the compound `Brc1cnc2[nH]ccc2c1` , report solubility (mole fraction).
0.00726

* * *

- details: in methanol, 278.15 K
property-name: solubility (mole fraction)

State its solubility (mole fraction) for this compound: `Brc1cnc2[nH]ccc2c1`
0.00595

* * *

- details: in n-butanol, 303.15 K
property-name: solubility (mole fraction)
// response body must contain only the number

Answer with the recorded solubility (mole fraction) for the compound listed here: `Brc1cnc2[nH]ccc2c1`
0.0278

* * *

- details: in ethyl acetate, 303.15 K
property-name: solubility (mole fraction)
Answer as a number with no unit attached.

Given `Brc1cnc2[nH]ccc2c1` , respond with its solubility (mole fraction).
0.0286

* * *

- details: in isopropanol, 298.15 K
property-name: solubility (mole fraction)

Determine its reported solubility (mole fraction): `Brc1cnc2[nH]ccc2c1`
0.0143

* * *

- details: in methyl acetate, 283.15 K
property-name: solubility (mole fraction)
Format: numeric value only, no unit, no commentary.

Given `Brc1cnc2[nH]ccc2c1` , respond with its solubility (mole fraction).
0.0253

* * *

- details: in isopropanol, 303.15 K
property-name: solubility (mole fraction)
API doc: respond with a numeric literal and nothing else, no unit.

Supply measured solubility (mole fraction) of `Brc1cnc2[nH]ccc2c1` in your reply.
0.0165

* * *

- details: in n-butanol, 278.15 K
property-name: solubility (mole fraction)

Retrieve solubility (mole fraction) measured for `Brc1cnc2[nH]ccc2c1` and print it.
0.0154

* * *

- details: in n-butanol, 318.15 K
property-name: solubility (mole fraction)
Answer with a bare number; do not write a unit.

Annotate the molecule `Brc1cnc2[nH]ccc2c1` with its measured solubility (mole fraction).
0.0377

* * *

- details: in n-propanol, 313.15 K
property-name: solubility (mole fraction)
Enter the number alone.

Return solubility (mole fraction) (reported value) for this compound: `Brc1cnc2[nH]ccc2c1`
0.0237

* * *

- details: in methyl acetate, 308.15 K
property-name: solubility (mole fraction)
API doc: respond with a numeric literal and nothing else, no unit.

Indicate its recorded solubility (mole fraction); the compound in question is `Brc1cnc2[nH]ccc2c1`
0.0419

* * *

- details: in n-propanol, 323.15 K
property-name: solubility (mole fraction)
The reply should be a number, written without any unit.

Tell us which solubility (mole fraction) value is on record for `Brc1cnc2[nH]ccc2c1`
0.0298
